Attribution: paper PMC7910569

Test system: SARS-CoV-2
study conditions: Caco-2; hits / concentration-response screen
readout type: anti-cytopathic activity against SARS-CoV-2 (in words)

I have this compound here, `O[C@@H](COc1cccc2ncccc12)CN1CCN([C@@H]2c3ccccc3[C@@H]3[C@H](c4ccccc42)C3(F)F)CC1` , and I need its recorded anti-cytopathic activity against SARS-CoV-2 (in words).
identified

Another compound to check: `Cc1c(C(=O)Nc2ccc(N3C[C@@H](C)O[C@@H](C)C3)nc2)cccc1-c1ccc(OC(F)(F)F)cc1`
identified

Lookup `COC(=O)C[C@](O)(CCCC(C)(C)O)C(=O)O[C@@H]1C(OC)=C[C@]23CCCN2CCc2cc4c(cc2[C@H]13)OCO4`
identified
